Parameter growth: see the listing below.
System: HT29 colon
Protocol Details: NCI-60 one-dose screen, 48 h (100 = growth as untreated, 0 = no growth, -100 = all killed)
Condition Context: 10 µM unless noted
About 83,000 compounds went through this panel and 20% of them were active in at least one assay; those are over-represented in the sample as a whole.
Could you give me the number in %? Just the number is fine.

Solved entries:
The recorded growth for CC(=O)C(c1c(O)c2ccccc2oc1=O)c1cc(=O)oc2c1ccc1ccccc12 (stereo not drawn) is 109

The recorded growth for Cc1ccc(S(=O)(=O)F)cc1C(=O)O is 100

The recorded growth for COc1ccc2c(c1)c(C1(O)CC(CSC#N)OC1=O)cn2C(=O)c1ccc(Cl)cc1 (stereo not drawn) is 110

The recorded growth for CNC(=O)Oc1cccc(C(F)(F)F)c1 is 108

The recorded growth for O=C(c1ccccc1O)c1[nH]c(Cl)c(Cl)c1-n1c(C(=O)c2ccccc2O)cc(Cl)c1Cl is 4.28

The recorded growth for CC(=O)c1ccc(C(=O)NCC2CCC3(CC2)OOC2(CCCCC2)OO3)cc1 is 83.4

***
The recorded growth for CC12CCC=CC1CCC1C2CCC2(C)C(c3ccc(=O)oc3)CCC12O (stereo not drawn) is -66.5

The recorded growth for CCOC(=O)[C@@H](C)C[C@H](Cc1ccccc1)NC(=O)c1csc([C@@H](C[C@H](C(C)C)N(C)C(=O)[C@@H](NC(=O)[C@H]2CCCCN2C)C(C)(C)CC)OC(C)=O)n1 is -4.94

The recorded growth for O=C(N/N=C/c1ccc(N(CCCl)CCCl)cc1)c1cccc2ccccc12 is 39.4

The recorded growth for N#Cc1c(Br)n(C2OC(CO)C(O)C2O)c2ncnc(N)c12 (stereo not drawn) is 43.8

The recorded growth for c1ccc(COc2ccc3[nH]cc(CCN(Cc4ccccc4)Cc4ccccc4)c3c2)cc1 is 83.5

The recorded growth for Cn1cc(-c2csc(-c3cn(CCCCN4CCCCC4)c4ccc(F)cc34)n2)c2cccnc21 is -73.5

The recorded growth for C#Cc1ccc2c(c1)C(c1ccccc1F)=NCC(=O)N2C is 15.7

The recorded growth for CC[C@H](C)[C@H](NC(=O)N[C@@H](C)c1ccccc1)C(=O)N(C)[C@H](C[C@@H](OC(C)=O)c1nc(C(=O)N[C@@H](Cc2ccccc2)C[C@H](C)C(=O)OC)cs1)C(C)C is -24.4

The recorded growth for Nc1ncnc2n[nH]nc12 is 79.7

The recorded growth for Cc1c(NS(=O)(=O)c2ccccc2)ccc([N+](=O)[O-])c1Cl is 76.4

The recorded growth for CC1(C)N=C(N)N=C(N)N1c1ccc(OCCCNC(=O)Nc2ccc(S(=O)(=O)F)cc2)c(Cl)c1 is 8

The recorded growth for CCCCCCCCC(CO)NCCc1ccccc1 (stereo not drawn) is 73.6

The recorded growth for C[CH2][Sn]([Cl])([Cl])[CH2]C.Oc1ccccc1C=NCCN=Cc1ccccc1O is 108

The recorded growth for O=C(CCl)c1ccc([N+](=O)[O-])o1 is -14.3
